Tested on: HCT116 MTAP KO cells
Assay: Inhibitory activity against cell proliferation (CellTiter Glo, 6 days), HCT116 MTAP KO
Format: cell-based
Settings: ratio of IC50 HCT116-WT / HCT116 MTAP KO
Response key: 1 means Selectivity HCT 116-WT/ HCT116 MTAP KO >= 30; 0 means Selectivity HCT 116-WT/ HCT116 MTAP KO < 30.

In: Answer whether Selectivity HCT 116-WT/ HCT116 MTAP KO of Cc1cc2cc(C(=O)N(Cc3ccc(-c4cncc(C(F)(F)F)c4)cn3)N(C)c3ncccn3)ccc2nc1N is greater than or equal to 30.
Out: 0

In: Lookup Cc1cc2cc(C(=O)N(Cc3ccc(C(F)(F)F)cn3)N(C)c3ncccc3C(F)(F)F)ccc2nc1N
Out: 0

In: Same read-out for Cc1cc2nc(N)c3cnn(C)c3c2cc1C(=O)N1C(C)CCN1c1ncc(Br)cc1F (stereo not drawn) ?
Out: 1

In: Also need CN(c1ncccn1)N(Cc1ccc(C(F)(F)F)cn1)C(=O)c1ccc2nc(N)c(Br)cc2c1 , thanks.
Out: 0

In: Entry CN(c1ccccc1)N(Cc1ccc(C(F)(F)F)cn1)C(=O)c1ccc2nc(N)c3cnn(C)c3c2c1 [Example 15] please
Out: 0

In: Do the same for Cc1cc2cc(C(=O)N(Cc3ccc(C4(F)COC4)cn3)N(C)c3ncccn3)ccc2nc1N please
Out: 0

In: Another compound: Cc1cc2cc(C(=O)N(Cc3ccc(-c4ccc(N5CCNCC5)nc4)cn3)N(C)c3ncccn3)ccc2nc1N
Out: 0

In: Next up: Cc1cc2cc(C(=O)N(Cc3ccc(-c4ccc(N(C)C5CCC5)nc4)cn3)N(C)c3ncccn3)ccc2nc1N
Out: 0

In: Try this compound too: C=C1CN(C(=O)c2cc3c(cc2Cl)nc(N)c2cnn(C)c23)N(c2ncc(Cl)cc2F)C1
Out: 0

In: Also need Cc1cc2cc(C(=O)N(Cc3ccc(-c4cnc5nn(C)cc5c4)cn3)N(C)c3ncccn3)ccc2nc1N , thanks.
Out: 0

In: Moving on to Cc1cc2nc(N)c3cnn(C)c3c2cc1C(=O)N1CCCN1c1ncc(-c2ccc(N3CCN(C)CC3)nc2)cc1F
Out: 0

In: Again, but for Cc1cc2nc(N)c3cnn(C)c3c2cc1C(=O)N1CC(C)CN1c1ccccn1 (stereo not drawn)
Out: 1

In: Then what about the compound Cc1cc2cc(C(=O)N(Cc3ccc(C(F)(F)F)cn3)N(C)c3ncccc3Cl)ccc2nc1N ?
Out: 0

---

Assignment: determine reported pIC50 for the given compounds.
Target: PRMT5-MTA (Homo sapiens, UniProt O14744)
Sequence (O14744 whole entry): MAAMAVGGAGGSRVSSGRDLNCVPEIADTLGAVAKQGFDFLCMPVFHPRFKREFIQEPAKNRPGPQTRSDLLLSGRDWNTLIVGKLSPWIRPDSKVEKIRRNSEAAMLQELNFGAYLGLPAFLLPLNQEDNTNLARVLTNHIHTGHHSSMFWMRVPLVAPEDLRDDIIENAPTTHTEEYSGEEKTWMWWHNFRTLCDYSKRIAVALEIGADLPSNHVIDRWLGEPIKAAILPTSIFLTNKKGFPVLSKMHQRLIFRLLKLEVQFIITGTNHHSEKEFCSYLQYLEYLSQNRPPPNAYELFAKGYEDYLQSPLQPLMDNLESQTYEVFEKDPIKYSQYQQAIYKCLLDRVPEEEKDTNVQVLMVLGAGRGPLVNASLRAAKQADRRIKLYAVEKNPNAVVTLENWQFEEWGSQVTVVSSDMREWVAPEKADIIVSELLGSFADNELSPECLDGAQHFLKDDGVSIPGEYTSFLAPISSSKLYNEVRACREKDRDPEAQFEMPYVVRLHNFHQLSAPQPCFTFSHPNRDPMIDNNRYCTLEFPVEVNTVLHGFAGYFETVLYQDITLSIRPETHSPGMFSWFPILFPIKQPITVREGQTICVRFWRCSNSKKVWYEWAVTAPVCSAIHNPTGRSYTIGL
Sequence (Q9BQA1 whole entry partner): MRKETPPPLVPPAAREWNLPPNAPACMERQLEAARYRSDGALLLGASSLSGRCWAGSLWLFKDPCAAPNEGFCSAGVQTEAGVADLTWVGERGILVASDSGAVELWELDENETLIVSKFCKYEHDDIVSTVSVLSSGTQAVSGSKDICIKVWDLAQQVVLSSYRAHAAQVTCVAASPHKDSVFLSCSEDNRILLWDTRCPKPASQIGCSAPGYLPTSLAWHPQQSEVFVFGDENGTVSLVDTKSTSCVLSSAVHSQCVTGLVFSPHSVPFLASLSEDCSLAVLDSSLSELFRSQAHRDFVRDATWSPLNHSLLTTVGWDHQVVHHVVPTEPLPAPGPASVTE
Assay: Enzymatic inhibitory activity against PRMT5-MTA (AlphaScreen)
Type: biochemical
Details: read-out: IC50
Formally, pIC50 is defined as -log10 of the concentration c, with c in mol/L.

In: Any idea what its pIC50 is? The compound is CCN(c1ncccn1)N(Cc1ccc(C(F)(F)F)cn1)C(=O)c1ccc2nc(N)c(C)cc2c1
Out: 8.82

In: Further, for CN(c1ncccn1)N(Cc1ccc(C(F)(F)F)cn1)C(=O)c1ccc2nc(N)c3cnn(C)c3c2c1 ?
Out: 9.00

In: Then Cc1cc2cc(C(=O)N(Cc3ccc(-c4cnn(CC(F)(F)F)c4)cn3)N(C)c3ncccn3)ccc2nc1N ?
Out: 9.16

In: Next compound up: Cc1cc2cc(C(=O)N(Cc3ccc(C(F)(F)F)cn3)n3cnc4cccnc43)ccc2nc1N
Out: 8.40

In: Could you do the same for Cc1cc2nc(N)c3cnn(C)c3c2cc1C(=O)N1CC(F)CN1c1ncccc1F (stereo not drawn) , please?
Out: 8.42

In: Proceed to Cc1cc2nc(N)c3cnn(C)c3c2cc1C(=O)N1CC(C)(O)CN1c1ncccc1F (stereo not drawn)
Out: 8.21

In: Lookup Cc1cc2cc(C(=O)N(Cc3ccc(-c4ccc(N5CCCC5)nc4)cn3)N(C)c3ncccn3)ccc2nc1N
Out: 8.64

In: What do we get for Cc1cc2cc(C(=O)N(Cc3ccc(C(F)(F)F)cn3)Nc3ncccc3F)ccc2nc1N ?
Out: 8.46

In: How about Cc1cc2nc(N)c3cnn(C)c3c2cc1C(=O)N1CCCN1c1ccc(C2CC2)cn1 ?
Out: 8.49

In: Try this compound next: COc1ncc(F)cc1-c1ccc(CN(C(=O)c2ccc3nc(N)c(C)cc3c2)N(C)c2ncccn2)nc1
Out: 8.77

In: Please answer likewise for [2H]C([2H])([2H])OC1CN(C(=O)c2cc3c(cc2C)nc(N)c2cnn(C)c23)N(c2ncccc2F)C1 (stereo not drawn)
Out: 8.23

In: Now this one: Cc1cc2cc(C(=O)N(Cc3ccc(C(F)(F)F)cn3)N(C)c3nccc4ccccc34)ccc2nc1N
Out: 8.51

In: Would you mind doing Cc1cc2cc(C(=O)N(Cc3ccc(-c4ccc(N5CCN(C)CC5)nc4)cn3)N(C)c3ncccn3)ccc2nc1N as well?
Out: 8.80

In: Further, for Cc1cc2cc(C(=O)N(Cc3ccc(C(F)(F)F)cn3)N(C)c3ncc(OC(F)F)cn3)ccc2nc1N ?
Out: 8.72

In: # repeat for Cc1cc2cc(C(=O)N(Cc3ccc(C(F)(F)F)cn3)N(C)c3ncccc3C(F)(F)F)ccc2nc1N
Out: 8.82

---

Give measured Selectivity HCT 116-WT/ HCT116 MTAP KO for each item. Keep answers brief.
System: HCT116 MTAP KO cells
Assay: Inhibitory activity against cell proliferation (CellTiter Glo, 6 days), HCT116 MTAP KO
Format: cell-based
Details: ratio of IC50 HCT116-WT / HCT116 MTAP KO
Write the value as a bare number.

In: I have this molecule here, COC1CN(C(=O)c2cc3c(cc2Cl)nc(N)c2cnn(C)c23)N(c2ncccc2F)C1 (stereo not shown) [Example 444] , and I need its recorded Selectivity HCT 116-WT/ HCT116 MTAP KO.
Out: 15.43

In: Input COc1ccnc(N(C)N(Cc2ccc(C(F)(F)F)cn2)C(=O)c2ccc3nc(N)c(C)cc3c2)n1 [Example 76]
Out: 21.94

In: What do you have for Cc1cc2cc(C(=O)N(Cc3ccc(C(F)(F)F)cn3)N(C)c3c(F)cccc3F)ccc2nc1N [Compound 116] ?
Out: 37.85

In: And Cc1cc2cc(C(=O)N(Cc3ccc(C(C)(C)F)cn3)N(C)c3ncccn3)ccc2nc1N [Example 288] ?
Out: 28.91

In: Item: Cc1cc2cc(C(=O)N(Cc3ccc(C(F)(F)F)cn3)Nc3ncccc3F)ccc2nc1N [Example 56]
Out: 23.99

In: What do you get for CCOc1ccc(CN(C(=O)c2ccc3nc(N)c(C)cc3c2)N(C)c2ncccn2)nc1 [Example 264] ?
Out: 17.97

In: Also, Cc1cc2cc(C(=O)N(Cc3ccc(-c4cn(C)cn4)cn3)N(C)c3ncccn3)ccc2nc1N [Example 194] please.
Out: 16.46

In: Same read-out for Cc1cc2nc(N)c3cnn(C)c3c2cc1C(=O)N1CC(C)CN1c1ncc(C#CCF)cc1F (stereo not shown) [Example 495] ?
Out: 24.00

In: Try the molecule Cc1cc2cc(C(=O)N(Cc3cc(C(F)(F)F)ccn3)N(C)c3ncccn3)ccc2nc1N [Example 61]
Out: 18.95

In: Please do the same for Cc1cc2cc(C(=O)N(Cc3ccc(-c4ccc(=O)[nH]c4)cn3)N(C)c3ncccn3)ccc2nc1N [Example 143] as well.
Out: 17.49

In: What would you report for Cc1cc2cc(C(=O)N(Cc3ccc(-c4cccnc4)cc3F)N(C)c3ncccn3)ccc2nc1N [Example 177] ?
Out: 31.20

In: Likewise for CN(c1ccccc1F)N(Cc1ccc(C(F)(F)F)cn1)C(=O)c1ccc2nc(N)c3cnn(C)c3c2c1 [Example 281] ?
Out: 12.73

In: One more molecule: Cc1cc2nc(N)c3cnn(C)c3c2cc1C(=O)N1CC(C)CN1c1cc(F)ccc1F (stereo not shown) [Example 335]
Out: 42.93

In: Field entry: Cc1cc2nc(N)c3cnn(C)c3c2cc1C(=O)N1CC(C)CN1c1ccc(F)cc1F (stereo not shown) [Example 381]
Out: 36.92

In: Input Cn1ncc2c(N)nc3cc(Cl)c(C(=O)N4CC5(CN4c4cccc(F)n4)CC(F)(F)C5)cc3c21 [Example 414]
Out: 16.94

---

Biological target: PRMT5-MTA (Homo sapiens)
Experiment: Enzymatic inhibitory activity against PRMT5-MTA (AlphaScreen)
Format: biochemical
Settings: read-out: IC50
Experimental: The AlphaScreen method was used to detect the enzymatic inhibitory activity of the compounds against PRMT5-MTA. 1 x Methyltransferase assay buffer IV (signalchem) was prepared as a solution for diluting each component for the enzymatic reaction. […] The signal values were detected for the well plate through the Alpha method using an Envision multifunctional microplate-reader, and the IC50 values for inhibition of the compounds on PRMT5/MET50 enzyme activity were calculated in Xlfit 5.0 software. […]
measurement name: pIC50
pIC50 here is simply -log10 of the concentration when that concentration is written in mol/L.

In: Could you tell me which pIC50 is on file for C=C1CN(C(=O)c2cc3c(cc2Cl)nc(N)c2cnn(C)c23)N(c2ncc(Br)cc2F)C1 ?
Out: 8.26

In: Try the compound Cc1cc2nc(N)c3cnn(C)c3c2cc1C(=O)N(C)N1CCCc2cccnc21
Out: 8.46

In: Field entry: COC1CN(C(=O)c2cc3c(cc2Cl)nc(N)c2cnn(C)c23)N(c2cc(F)ccc2F)C1 (stereo not shown)
Out: 8.43

In: Note, next up: COc1ccc(-c2ccc(CN(C(=O)c3ccc4nc(N)c(C)cc4c3)N(C)c3ncccn3)nc2)cn1
Out: 8.64
